Source of measurements: paper PMC11062922

Tested on: LCK
Set-up: species or system human, MV4-11 + K-562 + COLO205 + SK-N-BE2 + OVCAR-8
Conditions: read-out: apparent Kd; compound concentrations:100 nM and 1000 nM (sheet 'Samples'); n = 1
endpoint_label: potency estimated from few doses (nM)
Note: unit nM is implicit; provide only the numeric part.

Examples from the recorded data:
compound | potency estimated from few doses [nM]
CN1C[C@@H]2Cn3c(c(C4=C(c5cn(C)c6ccccc56)C(=O)NC4=O)c4ccccc43)C[C@H]2C1.Cl [RO0320234-001] | 134
Cl.Cl.NCC(C(=O)Nc1cc(Br)c(-c2ccnc3[nH]ccc23)s1)c1ccccc1.NCC(C(=O)Nc1cc(Br)c(-c2ccnc3[nH]ccc23)s1)c1ccccc1 (stereo not drawn) [GSK1269851A] | 519
NCCNS(=O)(=O)c1ccc(-c2ccnc3[nH]ccc23)cc1 [GSK977617A] | 515
CS(=O)(=O)CCn1c(=O)c(Oc2ccc(F)cc2F)cc2cnc(NC3CCOCC3)nc21 [RO5027956-000] | 1160
CC(C)c1nc(-c2ccc(F)c(NS(=O)(=O)c3c(F)cccc3F)c2)c(-c2ccnc(Nc3ccc(N4CCOCC4)nc3)n2)s1 [GSK1804250A] | 342

Switching to the query record.
Ask | Quick check: potency estimated from few doses on LCK, item O=C1NC(=O)C(N2CCc3ccccc32)=C1c1ccccc1Cl [SB-373598] ?
Reply | 138

* * *

System: PYGL
Design: species or system human, MV4-11 + K-562 + COLO205 + SK-N-BE2 + OVCAR-8
Settings: read-out: apparent Kd; compound concentrations:100 nM and 1000 nM (sheet 'Samples'); n = 1
Measured potency estimated from few doses, listed per entry for reference.
Include the unit right after the number.

Recorded results for 3 molecules are shown here.
molecule | endpoint_label | readout_value
Fc1ccc(-c2ncn(C3CCNCC3)c2-c2ccnc(Oc3ccc4c(c3)OCO4)n2)cc1 [SB-250715] | potency estimated from few doses | 1990 nM
CNc1nc(-c2ccc3c(N)n[nH]c3c2)cc(N2C[C@@H](C(=O)NC3CCCCC3)CC[C@H]2C)n1 [GSK2334470] | potency estimated from few doses | 2020 nM
NS(=O)(=O)c1ccc(Nc2ncc(-c3ccccc3)o2)cc1 [GW572399X] | potency estimated from few doses | 1900 nM

Ask | May I ask what potency estimated from few doses has been recorded for COc1ccccc1-c1cc(/C=C2\C(=O)Nc3ncc(Br)cc32)cc(Br)c1O [GW442130X] ?
Reply | 1840 nM

Ask | And Cc1ccc(NC(=O)CC2CC2)cc1-c1ccc(C(=O)NCC2CC2)cc1 [GW796920X] ?
Reply | 2130 nM

Ask | Record: Nc1nc(N)c2nc(-c3ccccc3)[nH]c2n1 [SKF-12778]
Reply | 1640 nM

* * *

Tested on: PRKAA2
Set-up: species or system human, MV4-11 + K-562 + COLO205 + SK-N-BE2 + OVCAR-8
Details: read-out: apparent Kd; compound concentrations:100 nM and 1000 nM (sheet 'Samples'); n = 1
potency estimated from few doses overview
# number only, unit nM dropped from output

compound | system_name | potency estimated from few doses, nM
Cl.Cn1c(=O)c(Cc2ccc(F)cc2F)cc2cnc(NC3CCOCC3)nc21 | PRKAA2 | 1190
Cl.Cn1c(=O)c(Oc2ccccc2)cc2cnc(NC3CCOCC3)nc21 | PRKAA2 | 1770
Cc1ccc2c(-c3ccncc3)c(-c3ccc(F)cc3)nn2c1.Cl [GW461484A] | PRKAA2 | 1840
Cl.Cl.NCC(C(=O)Nc1cc(Br)c(-c2ccnc3[nH]ccc23)s1)c1ccccc1.NCC(C(=O)Nc1cc(Br)c(-c2ccnc3[nH]ccc23)s1)c1ccccc1 (stereo not drawn) [GSK1269851A] | PRKAA2 | 1130
CN1C[C@@H]2Cn3c(c(C4=C(c5cn(C)c6ccccc56)C(=O)NC4=O)c4ccccc43)C[C@H]2C1.Cl | PRKAA2 | 448
CC(C)N1CCC(n2cnc(-c3ccc(F)cc3)c2-c2ccnc(N)n2)CC1 | PRKAA2 | 1290
CNC(=O)c1ccccc1Nc1nc(Nc2ccc(N3CCOCC3)cc2)ncc1Cl.Cl [GSK1576028A] | PRKAA2 | 688
O=C1NC(=O)C(N2CCc3ccccc32)=C1c1ccccc1Cl | PRKAA2 | 694

Next compound, potency estimated from few doses to be filled in.
Ask | What measured potency estimated from few doses goes with Nc1c(C(=O)c2ccccc2)cnn1-c1ccc(F)cc1 ?
Reply | 1780
